- systemUnderTest: EGFR (human)
- testContext: a431
measurementName: pIC50
Numbers only, as −log10 of the molar value.

Reference set (2 entries):
{"testSmiles": "CC(=O)Oc1ccc(OC(C)=O)c2c1CC(C)=CCC[C@]13O[C@H]1[C@H]2OC3=O", "measurementName": "pIC50", "numericValue": 4.80}
{"testSmiles": "CC1=CCC[C@]23O[C@H]2[C@@H](OC3=O)C2=C(C1)C(=O)C=CC2=O", "measurementName": "pIC50", "numericValue": 5.44}

Turning now to a further record.
**Query** Given the entry CC1=CCC[C@]23O[C@H]2[C@@H](OC3=O)C2=C(C1)C(=O)C(O)=CC2=O , report its measured pIC50.
**Result** 7.00

Cited source: the Kinase Knowledgebase extract (Sharma et al. 2016)
